SYSTEM: N-formyl peptide receptor 2 (Homo sapiens, UniProt P25090)
Sequence (P25090 whole entry): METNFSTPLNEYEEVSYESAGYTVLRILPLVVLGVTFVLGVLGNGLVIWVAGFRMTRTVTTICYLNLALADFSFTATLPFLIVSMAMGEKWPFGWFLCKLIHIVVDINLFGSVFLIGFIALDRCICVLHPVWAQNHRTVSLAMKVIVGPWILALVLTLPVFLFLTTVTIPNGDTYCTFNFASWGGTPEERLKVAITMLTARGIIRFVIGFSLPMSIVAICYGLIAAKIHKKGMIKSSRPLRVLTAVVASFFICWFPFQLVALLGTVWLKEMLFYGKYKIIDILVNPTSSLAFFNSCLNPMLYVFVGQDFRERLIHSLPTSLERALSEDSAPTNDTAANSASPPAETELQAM
TEST_DESCRIPTION: Agonist activity at human FPR2 transfected in HL-60 cells assessed as increase in intracellular calcium flux incubated for 30 mins by Fluo-4 AM dye based FLIPR-fluorometeric assay
Type: cell-based
MEASUREMENT_CONDITIONS: hl-60
TEST_READOUT: EC50
In your response, put the unit directly after the numeric value.

Enquiry: Given the entry COc1ccc(Cc2c(C)c(C)nn(CC(=O)Nc3ccc(Br)cc3)c2=O)cc1 , what EC50 was observed with N-formyl peptide receptor 2 (Homo sapiens, UniProt P25090)?
Return: 13 nM

###

SYSTEM: N-formyl peptide receptor 2 (Homo sapiens) (UniProt P25090)
TEST_DESCRIPTION: Agonist activity at human FPR2 transfected in HL-60 cells assessed as maximal intracellular calcium flux incubated for 30 mins by Fluo-4 AM dye based fluorometer analysis relative to control
Type: cell-based
MEASUREMENT_CONDITIONS: filed as agonist
TEST_READOUT: Emax (%)
// units = %; emit number, no label

Enquiry: I have this molecule here, COc1ccc(NC(=O)N[C@H](Cc2ccc(C#N)cc2)C(=O)NCC2(c3cccc(O)c3)CC2)cc1 , and I need its recorded Emax.
Return: 70

Enquiry: What do we get for COc1ccc(NC(=O)N[C@H](Cc2ccc(C#N)cc2)C(=O)NCC2(c3ccc(O)cc3)CC2)cc1 ?
Return: 70

Enquiry: What do we get for COc1ccc(NC(=O)N[C@@H](Cc2ccc(C#N)cc2)C(=O)NCC2(c3cccc(O)c3)CC2)cc1 ?
Return: 115

Enquiry: What do we get for COc1ccc(NC(=O)N[C@@H](Cc2ccc(O)cc2)C(=O)NCC2(c3ccccc3)CC2)cc1 ?
Return: 130

Enquiry: What do we get for COc1ccc(NC(=O)N[C@H](Cc2ccc(O)cc2)C(=O)NCC2(c3ccccc3)CC2)cc1 ?
Return: 90

Enquiry: What do we get for COc1ccc(NC(=O)N[C@@H](Cc2ccc(C#N)cc2)C(=O)NCC2(c3ccc(O)cc3)CC2)cc1 ?
Return: 75

###

What EC50 was measured for each of the following?
SYSTEM: N-formyl peptide receptor 2 (Homo sapiens, UniProt P25090)
TEST_DESCRIPTION: Agonist activity at human recombinant FPR2 stably transfected in Flp-In-CHO cells assessed as ERK1/2 phosphorylation incubated for 1 hr by Alphascreen fluorescence assay
Assay type: cell-based
// units = nM; emit number, no label

Enquiry: I have this molecule here, COc1cccc(Cc2cc(C)nn(C(C)C(=O)Nc3ccc(Cl)cc3)c2=O)c1 (racemic) , and I need its recorded EC50.
Return: 1580

Enquiry: What do we get for COc1cccc(Cc2cc(C)nn([C@H](C)C(=O)Nc3ccc(Cl)cc3)c2=O)c1 ?
Return: 1260

###

SYSTEM: fMet-Leu-Phe receptor (Homo sapiens, UniProt P21462)
Sequence (P21462 whole entry): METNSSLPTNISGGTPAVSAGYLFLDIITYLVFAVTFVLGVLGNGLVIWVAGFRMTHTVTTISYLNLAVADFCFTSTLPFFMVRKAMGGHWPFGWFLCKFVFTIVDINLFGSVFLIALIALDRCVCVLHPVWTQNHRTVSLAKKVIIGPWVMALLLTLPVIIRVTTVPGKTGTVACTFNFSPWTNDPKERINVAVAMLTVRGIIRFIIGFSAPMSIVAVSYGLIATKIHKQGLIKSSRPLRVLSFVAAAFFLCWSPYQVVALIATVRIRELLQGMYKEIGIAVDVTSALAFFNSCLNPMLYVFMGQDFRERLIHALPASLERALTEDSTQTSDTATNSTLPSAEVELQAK
TEST_DESCRIPTION: Agonist activity at FPR1 (unknown origin) expressed in CHO/Galpha16 cells assessed as increase in calcium flux by FLIPR assay
Format: cell-based
What EC50 was measured for each of the following?
// units = nM; emit number, no label

Enquiry: I have this compound here, CC(C)C(C(=O)O)C(C)NC(=O)Nc1ccc(Br)cc1 (stereo in doubt; 21) , and I need its recorded EC50.
Return: 1.7

Enquiry: What do we get for CC(C)C(C(=O)O)C(C)NC(=O)Nc1ccc(Br)cc1 (stereo in doubt; 19) ?
Return: 13

Enquiry: What do we get for CC(C)C(C(=O)O)C(C)NC(=O)Nc1ccc(Br)cc1 (stereo in doubt; 20) ?
Return: 98

Enquiry: What do we get for CC(C)C(C(=O)O)C(C)NC(=O)Nc1ccc(Br)cc1 (stereo in doubt; 18) ?
Return: 51
